// provenance: paper PMC6234764

EXPERIMENTAL DETAILS: Cereulide in organs and tissues, SIDA-MS
Format: in vivo, pig
CONDITION: pig, muscle, 10 ug/kg; daily oral dose 10 μg kg^-1 for 7 days, SIDA-MS; read-out: Cereulide concentration in muscle, average
ASSAY READOUT: tissue level at time at 168 h (ng/g)
Field: numeric (ng/g). Do not append units.

Qu. For CC(C)C[C@H]1OC(=O)[C@H](C(C)C)NC(=O)[C@H](C(C)C)OC(=O)[C@@H](C)NC(=O)[C@@H](CC(C)C)OC(=O)[C@H](C(C)C)NC(=O)[C@H](C(C)C)OC(=O)[C@@H](C)NC(=O)[C@@H](CC(C)C)OC(=O)[C@H](C(C)C)NC(=O)[C@H](C(C)C)OC(=O)[C@@H](C)NC1=O [cereulide] , what is its reported tissue level at time at 168 h?
Ans. 1.12
